- Tested on: SN12C renal
- assay summary: NCI tumour cell line growth inhibition, 48 h
TGI for assorted molecules
Kindly answer with a numeric value in µM, unit omitted.

smiles_string=Cc1c2ccnc(-c3ccccc3)c2cc2c1[nH]c1ccccc12 assay_readout=TGI val=7

Next, consider the following molecule.
Prompt line: Specify reported TGI for the molecule shown: `O=C(NCCN1CCOCC1)Nc1ccc(-c2cc3c(Nc4ccc(Oc5cccc(C(F)(F)F)c5)c(Cl)c4)ncnc3s2)cc1`
Response line: 8.21

---

TGI for assorted molecules
- Tested on: HL-60(TB) leukemia
- assay summary: NCI tumour cell line growth inhibition, 48 h
Kindly answer with a numeric value in µM, unit omitted.

Prompt line: Specify reported TGI for the molecule shown: `COc1ccc(CNc2nc(NCc3ccc(OC)cc3)nc(NC(C)C)n2)cc1`
Response line: 17.7

Prompt line: Specify reported TGI for the molecule shown: `CN(C)CCNC(=O)c1cccc2nc3c4ccccc4c4ccccc4c3nc12`
Response line: 4.09

Prompt line: Specify reported TGI for the molecule shown: `COc1ccc(-c2onc(-c3c(C)cc(C)cc3C)c2C2=NCCCN2)cc1`
Response line: 38.6
